These entries and their values trace back to patent US20240043439A1.

In what follows, each item is paired with its IC50 for human C5a receptor (C5aR) (Homo sapiens (Human), UniProt P21730).

IC50 in this record for Cc1cccc(F)c1C(=O)N1C(c2ccc(NC3CCCC3)cc2)C(C(=O)Nc2cnc3cnn(C)c3c2)C[C@@H]2COC[C@@H]21 (relative stereo) [Compound 189] : 50 to 500 nM

Per the records, this compound ( Cc1ccc(NC(=O)[C@H]2OCCN(C(=O)c3c(C)cccc3F)[C@H]2c2ccc(NC3CCCC3)cc2)cc1C(F)(F)F (relative stereo) [Compound 187] ) has IC50 equal to 50 to 500 nM

Memo: Cc1ccc(NC(=O)[C@H]2CCCN(c3ccncn3)[C@H]2c2ccc(NC3CCCC3)cc2)cc1C(F)(F)F [Compound 4] , reported IC50: 2000 to 5000 nM

Form field IC50, entry Cc1cccc(F)c1C(=O)N1[C@@H]2CCC[C@@H]2C[C@H](C(=O)Nc2ccc3ncoc3c2)[C@@H]1c1ccc(NC2CCCC2)cc1 (racemic) [Compound 67] : < 50 nM

Documented IC50 of Cc1ccc(NC(=O)C2C[C@H]3CCC[C@H]3N(C(=O)c3cn(C)cn3)C2c2ccc(NC3CCCC3)cc2)cc1C(F)(F)F (relative stereo) [Compound 113] : 2000 to 5000 nM

According to the records, this compound Cc1cccc(F)c1C(=O)N1[C@@H]2CCC[C@@H]2C[C@H](C(=O)Nc2ccc3c(ccn3C)c2)[C@@H]1c1ccc(NC2CCOCC2)cc1 [Compound 98] displays IC50 of < 50 nM
